Target: Human C3 (human, UniProt P01024 23-1663)
Sequence (P01024 23-1663 limits assumed): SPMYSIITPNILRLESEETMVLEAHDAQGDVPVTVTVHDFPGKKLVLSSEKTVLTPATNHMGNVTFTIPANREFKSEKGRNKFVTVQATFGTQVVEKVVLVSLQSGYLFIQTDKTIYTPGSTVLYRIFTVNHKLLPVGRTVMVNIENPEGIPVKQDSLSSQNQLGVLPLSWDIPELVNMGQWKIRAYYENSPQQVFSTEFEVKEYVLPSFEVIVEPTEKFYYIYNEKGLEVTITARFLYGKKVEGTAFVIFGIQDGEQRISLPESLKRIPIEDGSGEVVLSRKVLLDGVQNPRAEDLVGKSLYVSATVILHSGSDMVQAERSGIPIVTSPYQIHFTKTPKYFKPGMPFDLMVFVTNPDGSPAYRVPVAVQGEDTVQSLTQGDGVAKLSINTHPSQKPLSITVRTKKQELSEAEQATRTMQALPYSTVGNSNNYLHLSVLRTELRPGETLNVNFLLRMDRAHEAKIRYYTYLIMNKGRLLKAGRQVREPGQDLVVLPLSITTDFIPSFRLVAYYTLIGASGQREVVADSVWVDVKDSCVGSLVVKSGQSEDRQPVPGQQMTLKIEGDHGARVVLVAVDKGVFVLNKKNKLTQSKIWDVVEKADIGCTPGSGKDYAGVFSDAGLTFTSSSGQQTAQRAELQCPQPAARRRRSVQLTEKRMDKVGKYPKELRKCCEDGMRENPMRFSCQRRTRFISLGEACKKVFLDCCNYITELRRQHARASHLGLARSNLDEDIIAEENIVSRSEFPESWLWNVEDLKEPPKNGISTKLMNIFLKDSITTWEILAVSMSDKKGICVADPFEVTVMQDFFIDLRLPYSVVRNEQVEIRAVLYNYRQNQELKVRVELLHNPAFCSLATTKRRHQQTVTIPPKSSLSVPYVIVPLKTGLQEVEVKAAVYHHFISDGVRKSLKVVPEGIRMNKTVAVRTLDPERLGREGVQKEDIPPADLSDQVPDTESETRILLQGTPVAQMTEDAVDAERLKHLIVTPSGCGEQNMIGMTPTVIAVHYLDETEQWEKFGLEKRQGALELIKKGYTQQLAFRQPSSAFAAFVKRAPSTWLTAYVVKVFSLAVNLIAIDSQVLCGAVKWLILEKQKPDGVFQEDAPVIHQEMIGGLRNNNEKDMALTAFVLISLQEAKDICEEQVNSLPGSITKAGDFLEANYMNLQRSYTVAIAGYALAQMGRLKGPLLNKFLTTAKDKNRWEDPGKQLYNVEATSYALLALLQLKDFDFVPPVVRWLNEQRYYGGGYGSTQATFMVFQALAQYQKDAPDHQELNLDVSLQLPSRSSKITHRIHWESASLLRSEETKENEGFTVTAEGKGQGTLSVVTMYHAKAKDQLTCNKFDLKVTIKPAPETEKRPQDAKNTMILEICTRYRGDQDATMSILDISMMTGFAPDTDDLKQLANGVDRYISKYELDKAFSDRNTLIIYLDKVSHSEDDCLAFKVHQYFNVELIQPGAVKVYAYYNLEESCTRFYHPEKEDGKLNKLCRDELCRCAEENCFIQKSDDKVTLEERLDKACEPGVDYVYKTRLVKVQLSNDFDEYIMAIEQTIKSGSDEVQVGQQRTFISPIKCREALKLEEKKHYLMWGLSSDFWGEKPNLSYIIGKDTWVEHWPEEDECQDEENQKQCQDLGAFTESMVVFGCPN
Experiment: cell-based or functional assay
Positions of bridges follow the written chain, without caps; N, C: chain ends.

- binder: "Ac-ESSAICIWQDWGEHRCT-NH2 (disulfide 6-16; SMILES CC[C@H](C)[C@H](NC(=O)[C@H](C)NC(=O)[C@H](CO)NC(=O)[C@H](CO)NC(=O)[C@H](CCC(=O)O)NC(C)=O)C(=O)N[C@H]1CSSC[C@@H](C(=O)N[C@H](C(N)=O)[C@@H](C)O)NC(=O)[C@H](CCCNC(=N)N)NC(=O)[C@H](Cc2c[nH]cn2)NC(=O)[C@H](CCC(=O)O)NC(=O)CNC(=O)[C@H](Cc2c[nH]c3ccccc23)NC(=O)[C@H](CC(=O)O)NC(=O)[C@H](CCC(N)=O)NC(=O)[C@H](Cc2c[nH]c3ccccc23)NC(=O)[C@H]([C@@H](C)CC)NC1=O) [Compound 3]"
  CP hemolysis IC50 (nM): 69
- binder: "Ac-ICIWQDWGAHSCT-NH2 (disulfide 2-12; SMILES CC[C@H](C)[C@H](NC(C)=O)C(=O)N[C@H]1CSSC[C@@H](C(=O)N[C@H](C(N)=O)[C@@H](C)O)NC(=O)[C@H](CO)NC(=O)[C@H](Cc2c[nH]cn2)NC(=O)[C@H](C)NC(=O)CNC(=O)[C@H](Cc2c[nH]c3ccccc23)NC(=O)[C@H](CC(=O)O)NC(=O)[C@H](CCC(N)=O)NC(=O)[C@H](Cc2c[nH]c3ccccc23)NC(=O)[C@H]([C@@H](C)CC)NC1=O) [Compound 19]"
  CP hemolysis IC50 (nM): 140
